Test summary: Cytotoxicity assay (MTT) in mock-infected MDBK cells
Type: cell-based
Applied conditions: cattle (Bos taurus); concentration reducing viability of mock-infected MDBK cells by 50%, MTT method
Can you tell me CC50 for the items I'm about to list?

Request: What measured CC50 goes with COc1cc(C(=O)Nc2ccc(-c3nc4cc(C)c(C)cc4[nH]3)cc2)cc(OC)c1OC ?
Response: > 100 µM

Request: Okay, and Cc1ccc2[nH]c(-c3ccc(NC(=O)c4ccc(Cl)cc4)cc3)nc2c1 ?
Response: > 100 µM

Request: Same again, this time with Cc1cc2nc(-c3ccc(NC(=O)c4ccc([N+](=O)[O-])cc4)cc3)[nH]c2cc1C
Response: > 100 µM

Request: Same question for COc1cc(C(=O)Nc2ccc(-c3nc4cc(Cl)ccc4[nH]3)cc2)cc(OC)c1OC please.
Response: 45 µM

* * *

Observable: melting point

Request: Recorded melting point of O=C(Nc1ccc(-c2nc3cc(F)ccc3[nH]2)cc1)c1ccc([N+](=O)[O-])cc1 , please.
Response: > 300 °C

Request: Queued: COc1cc(C(=O)Nc2ccc(-c3nc4cc(Cl)ccc4[nH]3)cc2)cc(OC)c1OC
Response: 286 to 287 °C

Request: Further, for Cc1cc2nc(-c3ccc(NC(=O)c4ccc([N+](=O)[O-])cc4)cc3)[nH]c2cc1C ?
Response: > 300 °C

Request: Please do the same for O=C(Nc1ccc(-c2nc3cc(F)ccc3[nH]2)cc1)c1ccc(Cl)cc1 as well.
Response: 138.6 °C

Request: Entry to check: O=C(Nc1ccc(-c2nc3cc(Cl)c(Cl)cc3[nH]2)cc1)c1ccc(Cl)cc1
Response: 161 to 162 °C

Request: Continue with O=C(Nc1ccc(-c2nc3ccccc3[nH]2)cc1)c1ccc(Cl)cc1
Response: 170.5 °C

Request: Would you kindly repeat that for O=C(Nc1ccc(-c2nc3cc(Cl)ccc3[nH]2)cc1)c1ccc(Cl)cc1 ?
Response: > 300 °C

Request: Please give the result for O=C(Nc1ccc(-c2nc3cc(F)c(F)cc3[nH]2)cc1)c1ccc([N+](=O)[O-])cc1 too.
Response: > 300 °C

Request: Field entry: COc1cc(C(=O)Nc2ccc(-c3nc4cc(C)c(C)cc4[nH]3)cc2)cc(OC)c1OC
Response: 272 to 274 °C

Request: Likewise for O=C(Nc1ccc(-c2nc3ccccc3[nH]2)cc1)c1ccc([N+](=O)[O-])cc1 ?
Response: > 300 °C

* * *

Observable: melting point

Request: Which melting point value belongs to COc1cc(C(=O)Nc2ccc(-c3nc4cc(F)c(F)cc4[nH]3)cc2)cc(OC)c1OC ?
Response: 285 to 287 °C

Request: // same read-out, input: O=C(Nc1ccc(-c2nc3cc(F)c(F)cc3[nH]2)cc1)c1ccc(Cl)cc1
Response: > 300 °C

Request: Would you kindly repeat that for Cc1cc2nc(-c3ccc(NC(=O)c4ccc(Cl)cc4)cc3)[nH]c2cc1C ?
Response: > 300 °C

Request: One more compound: COc1cc(C(=O)Nc2ccc(-c3nc4cc(Cl)c(Cl)cc4[nH]3)cc2)cc(OC)c1OC
Response: 150.6 °C

Request: Same for O=C(Nc1ccc(-c2nc3cc(Cl)ccc3[nH]2)cc1)c1ccc([N+](=O)[O-])cc1
Response: > 300 °C

Request: Next compound: O=C(Nc1ccc(-c2nc3cc(Cl)c(Cl)cc3[nH]2)cc1)c1ccc([N+](=O)[O-])cc1
Response: > 300 °C

Request: Please answer likewise for COc1cc(C(=O)Nc2ccc(-c3nc4cc(F)ccc4[nH]3)cc2)cc(OC)c1OC
Response: 171.8 °C

Request: Same thing, different compound: Cc1ccc2[nH]c(-c3ccc(NC(=O)c4ccc(Cl)cc4)cc3)nc2c1
Response: > 300 °C
